Kindly supply the reported Ba/F3 KIF5B-RET Selectivity on parental generation values for the records listed here.
- System: Ba/F3 KIF5B-RET cells
- TEST_DESCRIPTION: Cytotoxicity assay (CellTiter-Glo), Ba/F3 KIF5B-RET
- Format: cell-based
- EXPERIMENTAL_CONTEXT: ratio of Ba/F3 parental IC50 to Ba/F3 KIF5B-RET IC50

Below, 2 compounds whose answers are already recorded.
COMPOUND | ENDPOINT_RESULT
CC(C)c1cc(-c2ccc(CC(=O)Nc3cc(C(C)(C)C(F)(F)F)on3)cc2)c2c(N)ncnn12 [Compound T-5] | 1660.8
CC(C)n1nc(-c2ccc(CC(=O)Nc3cc(C(C)(C)C(F)(F)F)on3)c(F)c2)c2c(N)ncnc21 [Compound T-6] | 6759.6

Quick one: give me Ba/F3 KIF5B-RET Selectivity on parental generation for each item below, same order please.
1. CC(C)n1nc(-c2ccc(NC(=O)Nc3cc(C(C)(C)C(F)(F)F)on3)cc2)c2c(N)ncnc21 [Compound T-2]
2. [2H]C([2H])([2H])C(n1cc(-c2ccc(CC(=O)Nc3cc(C(C)(C)C(F)(F)F)on3)cc2)c2c(N)ncnc21)C([2H])([2H])[2H] [Compound T-12]
3. CC(C)n1nc(-c2ccc(CC(=O)Nc3cc(C(C)(C)C(F)(F)F)on3)cc2)c2c(N)ncnc21 [Compound T-1]
4. CC(C)n1nc(-c2ccc(CC(=O)Nc3cc(C(C)(C)C(F)(F)F)on3)cn2)c2c(N)ncnc21 [Compound T-7]
5. CC(C)c1nc(-c2ccc(CC(=O)Nc3cc(C(C)(C)C(F)(F)F)on3)cc2)c2c(N)ncnn12 [Compound T-10]
6. CC(C)n1nc(-c2ccc(CC(=O)Nc3cc(C(C)(C)C(F)(F)F)no3)cn2)c2c(N)ncnc21 [Compound T-9]
7. [2H]C([2H])([2H])C(n1nc(-c2ccc(CC(=O)Nc3cc(C(C)(C)C(F)(F)F)no3)cc2)c2c(N)ncnc21)C([2H])([2H])[2H] [Compound T-11]

[out]
2111.4
478.6
10802.6
71.2
609.2
377.8
4236.2

----------
Kindly supply the reported Average weight g (x ± S), Day 0 of administration values for the records listed here.
- TEST_DESCRIPTION: Safety assay (body weight, tolerability) in Ba/F3 KIF5B-RET cell line tumor model
- Assay type: in vivo
- EXPERIMENTAL_CONTEXT: 10 mg/kg p.o. QD × 14, day 0 (baseline)
One number for each entry, in g.

Below, 3 compounds whose answers are already recorded.
COMPOUND | ENDPOINT_RESULT
CC(C)n1cc(-c2ccc(CC(=O)Nc3cc(C(C)(C)C(F)(F)F)on3)cc2)c2c(N)ncnc21 [Compound T-3] | 19.6
CC(C)n1nc(-c2ccc(NC(=O)Nc3cc(C(C)(C)C(F)(F)F)on3)cc2)c2c(N)ncnc21 [Compound T-2] | 20.1
CC(C)n1nc(-c2ccc(CC(=O)Nc3cc(C(C)(C)C(F)(F)F)no3)cc2)c2c(N)ncnc21 [Compound T-8] | 20.5

Now, please, on to the next compound.
GET /value?item= CC(C)n1nc(-c2ccc(NC(=O)Nc3cc(C(F)(F)F)ccc3F)cc2)c2c(N)ncnc21 [AD80, reference compound] &field=Average weight g (x ± S), Day 0 of administration returns 20.1
